# Tested on: HCT-15 colon
# assay_notes: NCI tumour cell line growth inhibition, 48 h
recorded_metric: TGI

Some solved entries appear below for comparison.
Look up TGI for this compound: C#Cc1c(C(N)=O)ncn1C1OC(COP(=O)(OCc2ccc([N+](=O)[O-])o2)N(C)CCCCCl)C(O)C1O (centres undefined) > 100 µM

What would you report for CCCCOC(=O)NC(=O)c1cn(CCSCCOC(=O)NCCCCCCNC(=O)OCCSCCn2cc(C(=O)NC(=O)OCCCC)c(=O)[nH]c2=O)c(=O)[nH]c1=O ? > 100 µM

And for O=c1cc(N2CCCC2)[nH]c(=O)n1-c1cccc(C(F)(F)F)c1 ? > 100 µM

Then there is this compound:
Record request: TGI value, item COc1cc(-c2nc3sc4c(c3c(=O)[nH]2)CCCCCC4)cc(OC)c1OC > 33.2 µM

====

Measured log10 TGI of individual entries
# Tested on: T-47D breast
# assay_notes: NCI tumour cell line growth inhibition, 48 h
Where a SMILES comes first, the peptide text is derived from it. The star is where a group is joined. Cbz = O=C(OCc1ccccc1)*; OBn = c1ccc(CO*)cc1
Values below are the log10 of the recorded TGI, with µM as the unit.

Name the reported log10 TGI value associated with the compound COc1ccc2nc3cc(Cl)ccc3c(NCCCNCCC(C)O)c2c1 (stereo not drawn) 0.61

Follow-up item: C#CC(F)(F)[C@]1(O)CC[C@H]2[C@@H]3CCC4=CC(=O)CCC4=C3[C@@H](c3ccc(C(C)=O)cc3)C[C@@]21C 1.56

Here is the next compound: CC(C)NC(=O)OCc1c(COC(=O)NC(C)C)c(-c2ccc(Cl)cc2)n2c1CCC2 1.32

Next compound: COC(=O)C(Cc1ccc(O)cc1)NC(=O)C(CC(=O)OCc1ccccc1)NC(=O)OCc1ccccc1 (stereo not drawn) (Cbz-Asp(OBn)-Tyr-OMe; configuration not given here) 1.60

// repeat for C=CC(=O)N[C@H]1CCOC[C@H]1Nc1ncc2cc(-c3c(Cl)c(OC)cc(OC)c3Cl)ccc2n1 and report 1.93

Next:
Look up log10 TGI: COc1ccc2c(c1)n([O-])c(C#N)c(N1CCN(c3ccc([N+](=O)[O-])cc3)CC1)[n+]2=O 1.17

What do you get for C=CCSC1=N/C(=C\c2ccccc2)C(=O)N1CC=C ? 1.99

====

# Tested on: COLO 205 colon
# assay_notes: NCI tumour cell line growth inhibition, 48 h
recorded_metric: GI50

Below are worked cases with known answers.
Request: GI50, test system COLO 205 colon, entry O=c1cc(-c2ccccc2)[nH]n1-c1nc2ccccc2[nH]1 27.8 µM

Continue with COc1ccc(-n2c3c(c4c(CN5CCOCC5)c(O)ccc42)CCc2ccccc2C3=O)cc1 > 100 µM

Proceed to COc1ccc2c(c1)C(c1ccccc1Cl)=Nc1c(n[nH]c1C)N2 11.7 µM

More entries:
Lab note: need GI50 for COc1ccccc1C#Cc1ccccc1C#CCCCCCC#Cc1ccccc1C#Cc1ccccc1OC on COLO 205 colon, anyone have it? 80.1 µM

Try this compound too: C=CC1CC12C(=O)C1OC2(C)C2C(=O)c3c(O)ccc(O)c3C(=O)C12 (configuration not stated) 1.52 µM

Proceed to COC(=O)[C@]12CC[C@@H](C)[C@H](C)[C@@H]1C1=CC[C@@H]3[C@@]4(C)C=C(O)C(=O)[C@@]5(C)COC(=C54)C[C@@]3(C)[C@]1(C)CC2 13.5 µM
